Give Selectivity ratio for every item shown.
# target or test system: Endothelin receptor, ET-A/ET-B (Homo sapiens) (UniProt P24530+P25101)
# Sequence (P24530 whole entry, looked up, one chain of several): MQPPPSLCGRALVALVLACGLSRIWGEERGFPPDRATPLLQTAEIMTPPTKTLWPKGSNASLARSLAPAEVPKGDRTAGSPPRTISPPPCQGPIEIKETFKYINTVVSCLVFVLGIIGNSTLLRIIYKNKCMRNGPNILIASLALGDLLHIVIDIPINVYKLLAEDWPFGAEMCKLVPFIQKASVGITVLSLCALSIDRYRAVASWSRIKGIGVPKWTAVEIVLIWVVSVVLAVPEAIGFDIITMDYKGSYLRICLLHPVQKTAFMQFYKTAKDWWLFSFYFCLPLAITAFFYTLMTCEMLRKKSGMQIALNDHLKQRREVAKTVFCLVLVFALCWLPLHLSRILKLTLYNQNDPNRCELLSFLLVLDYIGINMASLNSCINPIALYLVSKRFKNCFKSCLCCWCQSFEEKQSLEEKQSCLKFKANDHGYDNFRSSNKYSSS
# method notes: Selectivity ratio of inhibitory activity towards endothelin receptor A to endothelin receptor B (ETB/ETA)
# Assay type: protein assay
One number for each entry.

Query COc1ccc([C@@H]2c3nc(NC(C)C)ccc3[C@H](c3ccc4c(c3)OCO4)[C@H]2C(=O)O)c(OC)c1 yields Selectivity ratio of 530

Record Selectivity ratio per entry; entries follow.
1. COc1ccc([C@@H]2c3nc(NC(C)C)ccc3[C@H](c3ccc4c(c3)OCO4)[C@H]2C(=O)O)c(CCCO)c1
2. COc1ccc([C@@H]2c3nc(NC(C)C)ccc3[C@H](c3ccc4c(c3)OCO4)[C@H]2C(=O)O)c(CCC(C)(C)O)c1

Result string:
1. 910
2. 350

Query COc1ccc([C@@H]2c3nc(NC(C)C)ccc3[C@H](c3ccc4c(c3)OCO4)[C@H]2C(=O)O)c(CC(C)(C)O)c1 yields Selectivity ratio of 1000

* * *

# target or test system: UniProt P24530
Mark satisfied only for IC50 values smaller than 0.04 µM; exact matches and larger values are not satisfied.

Query string: # TODO verify IC50 < 0.04 µM strictly for this compound: CCCOc1cc(OC)ccc1[C@@H]1c2nc(NC(C)C)ccc2[C@H](c2ccc3c(c2)OCO3)[C@H]1C(=O)O
Result string: not satisfied

Query string: # TODO verify IC50 < 0.04 µM strictly for this compound: COc1ccc([C@@H]2c3nc(NC(C)C)ccc3[C@H](c3ccc4c(c3)OCO4)[C@H]2C(=O)O)c(CO)c1
Result string: not satisfied

Query string: # TODO verify IC50 < 0.04 µM strictly for this compound: COc1ccc([C@@H]2c3nc(NC(C)C)ccc3[C@H](c3ccc4c(c3)OCO4)[C@H]2C(=O)O)c(CCC(C)(C)O)c1
Result string: satisfied

Query string: # TODO verify IC50 < 0.04 µM strictly for this compound: COc1ccc([C@@H]2c3nc(NC(C)C)ccc3[C@H](c3ccc4c(c3)OCO4)[C@H]2C(=O)O)c(CC(C)(C)O)c1
Result string: satisfied

Further cases:
Query string: # TODO verify IC50 < 0.04 µM strictly for this compound: COc1ccc([C@@H]2c3nc(NC(C)C)ccc3[C@H](c3ccc4c(c3)OCO4)[C@H]2C(=O)O)c(CC(C)CO)c1 (stereo in doubt; form 1)
Result string: not satisfied

Query string: # TODO verify IC50 < 0.04 µM strictly for this compound: COc1ccc([C@@H]2c3nc(NC(C)C)ccc3[C@H](c3ccc4c(c3)OCO4)[C@H]2C(=O)O)c(CCO)c1
Result string: satisfied

* * *

# Tested on: Rattus norvegicus
# method notes: Plasma levels of compound was evaluated in rats after 4 hr of oral administration at 10 mg/kg
# Type: functional, organism-based
# Set-up: dose 10 mg/kg
Give Plasma level for every item shown.
Answers are plain numbers, in nM.

Here are 4 compounds together with their reported answers.
Query COc1ccc([C@@H]2c3nc(NC(C)C)ccc3[C@H](c3ccc4c(c3)OCO4)[C@H]2C(=O)O)c(OC(C)CO)c1 (stereo in doubt; form 2) yields Plasma level of 20

Query COc1ccc([C@@H]2c3nc(NC(C)C)ccc3[C@H](c3ccc4c(c3)OCO4)[C@H]2C(=O)O)c(OC(C)CO)c1 (stereo in doubt; form 1) yields Plasma level of 47

Query COc1ccc([C@@H]2c3nc(NC(C)C)ccc3[C@H](c3ccc4c(c3)OCO4)[C@H]2C(=O)O)c(CC(C)C(=O)N(C)C)c1 (stereo in doubt) yields Plasma level of 7

Query COCC(C)Cc1cc(OC)ccc1[C@@H]1c2nc(NC(C)C)ccc2[C@H](c2ccc3c(c2)OCO3)[C@H]1C(=O)O (stereo in doubt; form 2) yields Plasma level of 130

Further cases:
Query COc1ccc([C@@H]2c3nc(NC(C)C)ccc3[C@H](c3ccc4c(c3)OCO4)[C@H]2C(=O)O)c(CC(C)(C)O)c1 yields Plasma level of 48

* * *

# Tested on: Rattus norvegicus
# method notes: Plasma levels of compound was evaluated in rats after 4 hr of oral administration at 3 mg/kg
# Assay type: functional, organism-based
# Parameters: dose 3 mg/kg
observed property: Plasma level
Report as: number unit

Entry COCC(C)Cc1cc(OC)ccc1[C@@H]1c2nc(NC(C)C)ccc2[C@H](c2ccc3c(c2)OCO3)[C@H]1C(=O)O (stereo in doubt; form 1) , tested on Rattus norvegicus, has a reported Plasma level of 81 nM

Entry COc1ccc([C@@H]2c3nc(NC(C)C)ccc3[C@H](c3ccc4c(c3)OCO4)[C@H]2C(=O)O)c(CO)c1 , tested on Rattus norvegicus, has a reported Plasma level of 94 nM

Entry COc1ccc([C@@H]2c3nc(NC(C)C)ccc3[C@H](c3ccc4c(c3)OCO4)[C@H]2C(=O)O)c(CC(C)CO)c1 (stereo in doubt; form 1) , tested on Rattus norvegicus, has a reported Plasma level of 22 nM

Now turn to the next compound.
Entry COc1ccc([C@@H]2c3nc(NC(C)C)ccc3[C@H](c3ccc4c(c3)OCO4)[C@H]2C(=O)O)c(CN(C)C(C)=O)c1 , tested on Rattus norvegicus, has a reported Plasma level of 3 nM

* * *

# method notes: Bioavailability in rat (dose 3 mg/kg p.o.)
# Type: ADME, organism-based
# measurement conditions: in vivo, po
observed property: bioavailability (%)
Numbers only, in %.

Record bioavailability per entry; entries follow.
1. COCC(C)Cc1cc(OC)ccc1[C@@H]1c2nc(NC(C)C)ccc2[C@H](c2ccc3c(c2)OCO3)[C@H]1C(=O)O (stereo in doubt; form 1)
2. COc1ccc([C@@H]2c3nc(NC(C)C)ccc3[C@H](c3ccc4c(c3)OCO4)[C@H]2C(=O)O)c(CO)c1

Result string:
1. 70
2. 57

* * *

Sequence of the target: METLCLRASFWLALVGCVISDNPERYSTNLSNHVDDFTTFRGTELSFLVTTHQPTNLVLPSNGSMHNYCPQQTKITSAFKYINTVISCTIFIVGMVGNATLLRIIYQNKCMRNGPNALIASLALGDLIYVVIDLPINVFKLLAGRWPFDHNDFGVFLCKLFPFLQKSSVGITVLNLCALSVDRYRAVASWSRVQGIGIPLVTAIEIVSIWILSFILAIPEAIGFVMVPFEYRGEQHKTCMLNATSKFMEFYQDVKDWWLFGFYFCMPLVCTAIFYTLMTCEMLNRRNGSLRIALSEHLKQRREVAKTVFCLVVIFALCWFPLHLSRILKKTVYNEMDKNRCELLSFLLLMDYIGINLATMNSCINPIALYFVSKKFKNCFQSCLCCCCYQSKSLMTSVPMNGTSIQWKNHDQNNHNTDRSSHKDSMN
observed property: IC50 (nM)
One number for each entry, in nM.

Here are 4 molecules together with their reported answers.
Query CCC(CO)Cc1cc(OC)ccc1[C@@H]1c2nc(NC(C)C)ccc2[C@H](c2ccc3c(c2)OCO3)[C@H]1C(=O)O (stereo in doubt; form 2) yields IC50 of 0.011

Query COc1ccc([C@@H]2c3nc(NC(C)C)ccc3[C@H](c3ccc4c(c3)OCO4)[C@H]2C(=O)O)c(CC(C)CO)c1 (stereo in doubt; form 2) yields IC50 of 0.059

Query COCC(C)Cc1cc(OC)ccc1[C@@H]1c2nc(NC(C)C)ccc2[C@H](c2ccc3c(c2)OCO3)[C@H]1C(=O)O (stereo in doubt; form 2) yields IC50 of 0.011

Query COCC(C)Cc1cc(OC)ccc1[C@@H]1c2nc(NC(C)C)ccc2[C@H](c2ccc3c(c2)OCO3)[C@H]1C(=O)O (stereo in doubt; form 1) yields IC50 of 0.025

Record IC50 per entry; entries follow.
1. COc1ccc([C@@H]2c3nc(NC(C)C)ccc3[C@H](c3ccc4c(c3)OCO4)[C@H]2C(=O)O)c(OCc2ccccc2)c1
2. COc1ccc([C@@H]2c3nc(NC(C)C)ccc3[C@H](c3ccc4c(c3)OCO4)[C@H]2C(=O)O)c(CCCO)c1

Result string:
1: 0.8; 2: 0.022

* * *

# Test system: Rattus norvegicus
# method notes: Plasma levels of compound was evaluated in rats after 1 hr of oral administration at 10 mg/kg
# Format: functional, organism-based
# Design: dose 10 mg/kg
Give Plasma level for every item shown.
One number for each entry, in nM.

Here are 4 compounds together with their reported answers.
Query COc1ccc([C@@H]2c3nc(NC(C)C)ccc3[C@H](c3ccc4c(c3)OCO4)[C@H]2C(=O)O)c(OC(C)CO)c1 (stereo in doubt; form 2) yields Plasma level of 440

Query COc1ccc([C@@H]2c3nc(NC(C)C)ccc3[C@H](c3ccc4c(c3)OCO4)[C@H]2C(=O)O)c(CC(C)C(=O)N(C)C)c1 (stereo in doubt) yields Plasma level of 65

Query COc1ccc([C@@H]2c3nc(NC(C)C)ccc3[C@H](c3ccc4c(c3)OCO4)[C@H]2C(=O)O)c(CC(C)(C)O)c1 yields Plasma level of 460

Query COc1ccc([C@@H]2c3nc(NC(C)C)ccc3[C@H](c3ccc4c(c3)OCO4)[C@H]2C(=O)O)c(OC(C)CO)c1 (stereo in doubt; form 1) yields Plasma level of 160

Now turn to the next compound.
Query COCC(C)Cc1cc(OC)ccc1[C@@H]1c2nc(NC(C)C)ccc2[C@H](c2ccc3c(c2)OCO3)[C@H]1C(=O)O (stereo in doubt; form 2) yields Plasma level of 810
